- tgt: Metabotropic glutamate receptor 2 (Homo sapiens, UniProt Q14416)
- Sequence (Q14416 whole entry): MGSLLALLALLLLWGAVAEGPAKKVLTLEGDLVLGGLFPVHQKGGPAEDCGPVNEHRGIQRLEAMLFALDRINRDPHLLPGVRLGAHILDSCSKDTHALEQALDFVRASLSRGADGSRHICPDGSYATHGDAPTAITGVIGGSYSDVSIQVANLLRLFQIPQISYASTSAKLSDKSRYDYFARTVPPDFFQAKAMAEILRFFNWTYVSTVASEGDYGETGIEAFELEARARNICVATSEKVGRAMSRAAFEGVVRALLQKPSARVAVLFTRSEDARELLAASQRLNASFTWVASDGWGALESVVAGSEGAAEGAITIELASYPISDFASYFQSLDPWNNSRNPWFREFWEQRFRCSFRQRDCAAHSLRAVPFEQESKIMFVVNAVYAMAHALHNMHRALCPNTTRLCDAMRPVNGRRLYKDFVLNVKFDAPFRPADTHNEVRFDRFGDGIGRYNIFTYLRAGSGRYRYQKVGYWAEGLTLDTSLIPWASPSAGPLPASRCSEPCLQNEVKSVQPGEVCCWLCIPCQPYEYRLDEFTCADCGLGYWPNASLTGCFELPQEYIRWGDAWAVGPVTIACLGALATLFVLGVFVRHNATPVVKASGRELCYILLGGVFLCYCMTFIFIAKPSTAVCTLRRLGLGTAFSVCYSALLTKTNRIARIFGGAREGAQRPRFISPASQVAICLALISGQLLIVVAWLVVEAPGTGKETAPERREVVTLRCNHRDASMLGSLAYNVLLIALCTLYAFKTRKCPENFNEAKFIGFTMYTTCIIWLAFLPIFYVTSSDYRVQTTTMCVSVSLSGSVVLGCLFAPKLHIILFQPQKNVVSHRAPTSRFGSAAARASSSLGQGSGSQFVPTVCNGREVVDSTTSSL
- protocol details: Agonist activity at mGlu2 receptor
reported endpoint: pEC50
The scale used: pEC50 is minus the common logarithm of the concentration in molar units.

// recorded pEC50 for N[C@H](C(=O)O)c1ccc(C(=O)O)c(O)c1 : 4.32

----------
- tgt: Metabotropic glutamate receptor 1 (Homo sapiens, UniProt Q13255)
- Sequence (Q13255 whole entry): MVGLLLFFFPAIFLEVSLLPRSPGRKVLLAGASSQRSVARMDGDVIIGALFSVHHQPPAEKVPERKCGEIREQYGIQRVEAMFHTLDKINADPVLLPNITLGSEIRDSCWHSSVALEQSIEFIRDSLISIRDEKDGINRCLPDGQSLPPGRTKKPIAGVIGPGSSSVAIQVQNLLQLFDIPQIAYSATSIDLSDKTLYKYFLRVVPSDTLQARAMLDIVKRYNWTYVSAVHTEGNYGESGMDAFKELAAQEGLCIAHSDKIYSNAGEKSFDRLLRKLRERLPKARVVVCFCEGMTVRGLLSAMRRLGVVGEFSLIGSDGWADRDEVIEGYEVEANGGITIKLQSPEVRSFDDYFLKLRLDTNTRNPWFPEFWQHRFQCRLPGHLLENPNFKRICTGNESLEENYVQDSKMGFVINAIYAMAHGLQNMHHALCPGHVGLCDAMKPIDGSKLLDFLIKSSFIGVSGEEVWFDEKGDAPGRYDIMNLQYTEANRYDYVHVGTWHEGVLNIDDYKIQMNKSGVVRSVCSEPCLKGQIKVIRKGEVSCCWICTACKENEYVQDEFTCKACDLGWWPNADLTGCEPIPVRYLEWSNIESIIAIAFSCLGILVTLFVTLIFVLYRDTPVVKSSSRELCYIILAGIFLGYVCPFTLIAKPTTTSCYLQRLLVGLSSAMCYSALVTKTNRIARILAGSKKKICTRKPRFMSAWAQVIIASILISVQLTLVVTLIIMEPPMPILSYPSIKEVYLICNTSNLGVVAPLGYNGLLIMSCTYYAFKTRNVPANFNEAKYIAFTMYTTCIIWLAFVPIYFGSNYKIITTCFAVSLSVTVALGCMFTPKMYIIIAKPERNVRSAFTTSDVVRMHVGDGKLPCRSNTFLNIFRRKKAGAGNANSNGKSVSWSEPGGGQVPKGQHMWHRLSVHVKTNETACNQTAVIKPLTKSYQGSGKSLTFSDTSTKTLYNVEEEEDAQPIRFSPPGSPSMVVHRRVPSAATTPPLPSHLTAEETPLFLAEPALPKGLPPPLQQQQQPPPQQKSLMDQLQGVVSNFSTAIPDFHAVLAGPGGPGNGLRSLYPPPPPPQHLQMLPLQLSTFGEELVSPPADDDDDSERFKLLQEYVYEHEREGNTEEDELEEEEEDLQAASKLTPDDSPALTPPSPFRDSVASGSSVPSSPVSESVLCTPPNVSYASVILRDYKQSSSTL
- protocol details: Antagonist activity at human mGlu1 receptor
- Assay type: functional
reported endpoint: pIC50
Quick note: pIC50 values are minus log10 of concentrations in mol/L.

Given item CO[C@H]1CC[C@@H](C(=O)c2ccc3nc4c(cc3c2)CCCO4)CC1 , the value recorded as its pIC50 is 8.92

The measured values listed here are drawn from ChEMBL document CHEMBL1141458.
